Source listed as patent US20230340142A1.

Each entry below carries its recorded kon.
molecular target: T1, human PD-L1 recombinant protein, PD-L1-his (human, UniProt Q9NZQ7 19-238); test: Gator BLI; antibody on HFC sensor, PD-L1-his in solution; 1:1 fit
T1 construct: also called PD-L1 with a his-tag; not shown: his-tag
T1 sequence (Q9NZQ7 19-238 limits assumed): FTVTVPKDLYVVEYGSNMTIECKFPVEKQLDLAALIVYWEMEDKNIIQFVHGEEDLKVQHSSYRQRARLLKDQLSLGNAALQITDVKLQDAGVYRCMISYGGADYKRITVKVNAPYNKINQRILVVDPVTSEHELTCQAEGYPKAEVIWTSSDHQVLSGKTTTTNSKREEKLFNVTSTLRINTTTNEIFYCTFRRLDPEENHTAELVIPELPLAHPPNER
Note: unit M⁻¹ s⁻¹ is implicit; provide only the numeric part.

# count of solved cases: 3
Clone D (antibody, V domains shown, Mouse hybridoma clone) VH: EVQLQQSGPELVKPGASMKISCKASGYSFTGYTMNWVKQSHGKNLEWIGLIIPYNGGISYNQKFKDKATLTVDKSSSTAYMELLSLTSEDSAVYYCASLITTAPRDSMDYWGQGTSVTVSS VL: DIQMTQTTSSLSASLGDRVTISCRASQDISNYLNWYQQKPDGSVKLLIYYTSKLHSGVPSRFSGSGSGTDYSLTISNLEQEDIATYFCQQGDALPWTFGGGTKLEIK	225000
Clone C (antibody, V domains shown, Mouse hybridoma clone) VH: EVQLQQSGADLVKPGASVKLSCTASGFNIKDTYMHWVKQRPEQGLEWIGRIDPANGNTKYDPKFQGKATITTDTSSNTAYLQLSSLTSEDTAVYYCARGLGRWFAYWGQGTLVTVSA VL: DIVMTQSHKFMSTSVGDRVSITCKASQDVSNAVAWYQQKPGQSPELLIYSASNRYTGVPDRFTGSGSGTDFTFTISSVQAEDLAVYYCQQHDSTPLTFGAGTKLELK	234000
Clone N (antibody, V domains shown, Mouse hybridoma clone) VH: EVQLQQSGPELVKPGASMKISCKASGYSFTGYTMNWVKQSHGKNLEWIGLIIPHNGGTSYNQKFKDKATLTVDKSSRTAYMELLSLTSEDSAVYYCASLMTTAPRDSMDYWGQGTSVTVSS VL: DIQMTQTTSSLSASLGDRVTISCRASQDISNYLNWYQQKPDGTVKLLIYYTSRLHSGVPSRFSGSGSGTDYSLTISNLDQEDIATYFCQQGATLPWTFGGGTKLEIK	165000

Name the recorded kon for Clone B (antibody, V domains shown, Mouse hybridoma clone) VH: QGQMQQSGAELVKPGASVKLSCKTSGFTFSSSYISWLKQKPGQSLEWIAWIYAGTGGTSYNQKFTGKAQLTVDTPSSTAYMQFSSLTTEDSAIYYCARHEGKYWYFDVWGAGTTVTVSS VL: QILLTQSPAIMSASPGEKVTMTCSASSSVSYVHWYQQKPGSSPKPWIYDTSNLASGFPARFSGSGSGTSYSLIISSMEAEDAATYYCHQRSSYPWTFGGGTKLEIK .
101000
